Below, each entry is listed alongside its reported pIC50.
Test system: MCF7
assay: Anticancer activity against human MCF7 cells assessed as cell growth inhibition measured after 48 hrs by MTT assay
Format: functional, cell-based
settings: MCF7, 48 h
When answering, recall that pIC50 equals minus log10 of the concentration in mol/L, and write that number alone.

Example entries and their recorded answers appear below.
// pIC50 lookup, molecule = CS(=O)(=Nc1ccccc1)c1c[nH]c2ccccc12 (configuration not stated) , result: 5.00

Just so you know, measured pIC50 for CS(=O)(=Nc1cccc(C(F)(F)F)c1)c1c[nH]c2ccccc12 (configuration not stated) came out at 5.70

Documented pIC50 of Cc1ccc(N=S(C)(=O)c2c[nH]c3ccccc23)cc1 (configuration not stated) : 5.80

Next, consider the following molecule.
Documented pIC50 of COc1cc(N=S(C)(=O)c2c[nH]c3ccccc23)cc(OC)c1OC (configuration not stated) : 4.40
